# assay.summary: Primary fluorescence-based thiol-reactive (MSTI) qHTS assay for identification of artifact compounds. (AID 1845221); note: nearly all actives have a fitted effect of over 65% in size; note: potency is the fitted concentration of half-maximal effect
# cond: MSTI thiol-reactivity probe, 1 h; series mostly up to 53.8 µM
Records with an inconclusive call do not appear. Calls of active or inactive are those of the source. Calls come from the whole dose curve; as a rule, active = well fitted inhibition curve with a large enough effect; inconclusive = small, poorly fitted or top-dose-only effect; inactive = no such curve, though single readings can be large or run the other way.

compound: COc1ccc(-c2ccc3c(N4CCOCC4)nc(N4CC(C)OC(C)C4)nc3n2)cc1CO (configuration not stated)
Potency: inactive
--
compound: CC1=CC2/C=C(\C)CC[C@@H](O)[C@@H](O)[C@@H]3O[C@@H]3C(=O)[C@]23C(=O)N[C@@H](CC(C)C)[C@@H]3[C@@H]1C (some centres not stated)
Potency: inactive
--
compound: COc1ccc(/C=C/C(=O)O[C@@H]2[C@@H](O)[C@@H](O)[C@H](O[C@@H]3C=C(CO)[C@H]4[C@H](O[C@@H]5O[C@H](CO)[C@@H](O)[C@H](O)[C@H]5O)OC=C[C@H]43)O[C@H]2C)cc1O
Potency: 3.98 µM (active)
--
compound: COC(=O)C12CCC(C)C(C)C1C1=CCC3C4(C)CCC(OC(C)=O)C(C)(C)C4CCC3(C)C1(C)CC2 (configuration not stated)
Potency: inactive
--
compound: C=C[C@H]1[C@H](O[C@@H]2O[C@H](CO)[C@@H](O)[C@H](O)[C@H]2O)OC=C(C(=O)OC)[C@H]1CC(=O)O
Potency: inactive
--
compound: O=C(C(c1ccccc1)c1ccccc1)N1CCN(CC(O)COc2cccc3ncccc23)CC1 (configuration not stated)
Potency: inactive
--
compound: Cc1ccccc1C#Cc1ccc(CCC(=O)O)cc1
Potency: inactive
--
compound: CCCOC(c1cc2nccc(C(=O)O)c2[nH]1)c1ccccc1Cl (configuration not stated)
Potency: inactive
--
compound: CN(C)CC1CCOC1(c1ccccc1)c1ccccc1 (configuration not stated)
Potency: inactive
--
compound: O=C(CC1C(=O)Nc2ccccc21)OC[C@H]1O[C@@H](OCCc2ccc(O)cc2)[C@H](O)[C@@H](O)[C@@H]1O (some centres not stated)
Potency: 9.22 µM (active)
--
compound: CC(C)C(NC(=O)c1ccc2ccccc2n1)C(=O)NC(CC(=O)O)C(=O)COc1c(F)cccc1F (configuration not stated)
Potency: inactive
--
compound: CC(C)(C)c1ccc(S(=O)(=O)NCc2ccc(C(=O)Nc3cccnc3)cc2)cc1
Potency: inactive
--
compound: COC(=O)C[C@H]1C(C)(C)[C@H](OC(C)=O)C2CC3=C4CC(=O)O[C@@H](c5ccoc5)[C@]4(C)CCC3[C@@]1(C)C2=O (some centres not stated)
Potency: inactive
--
compound: CC(C)CCC1(O)C(=O)C(C)(C)C(O[C@@H]2O[C@H](CO)[C@@H](O)[C@H](O)[C@H]2O)C(C)(C)C1O (some centres not stated)
Potency: 2.32 µM (active)
--
compound: CN(C)C/C=C/C(=O)Nc1cc2c(Nc3ccc(F)c(Cl)c3)ncnc2cc1OC1CCOC1 (configuration not stated)
Potency: inactive
--
compound: COc1ccccc1NC(=O)OCC1CCN(C(=O)OC(C)(C)C)CC1
Potency: inactive
--
compound: CC1CC(O)C2(OC1=O)OC1C(O)C3C4CCC5CC(OC6OC(CO)C(O)C(O)C6OC6OC(C)C(O)C(O)C6O)CCC5(C)C4CCC3(C)C1C2C (configuration not stated)
Potency: inactive

====

# Test system: OV90
# assay.summary: Primary qHTS to identify gynecologic anti-cancer compounds using libraries of approved drugs and bioactive compounds (AID 1345084); note: % is set by controls: 0 for no effect and ±100 for the full control effect; nearly all actives have a fitted effect of over 55% in size
# cond: Gynecologic cancer cell panel viability, ATPlite luminescence, 48 h; series mostly up to 57.5 µM
Inconclusive results are not listed. Activity calls are given as the source filed them. Calls follow the shape of the dose curve; as a rule, active = well fitted cell-killing curve with a large enough effect; inconclusive = small, poorly fitted or top-dose-only effect, or effect the other way; inactive = flat fitted curve, though single readings scatter.
reported.endpoint: activity change, negative = cytotoxicity

molecule: C/C=C(\C)C(=O)OCC1OC(OC2OC(COC(=O)/C(C)=C/C)C(OC3OC(CO)C(OC(=O)/C(C)=C/C)C(OC(=O)/C(C)=C/C)C3O)C(O)C2O)C(O)C(O)C1OC1OC(CO)C(OC(=O)/C(C)=C/C)C(OC(=O)/C(C)=C/C)C1O (stereo not given)
experimental.system: OV90
reported.endpoint: activity change, negative = cytotoxicity
endpoint.result: -3.76% [at 11.6 µM] (inactive)

molecule: O=C(O)c1cccc(S(=O)(=O)N2CCc3ccccc3C2)c1
experimental.system: OV90
reported.endpoint: activity change, negative = cytotoxicity
endpoint.result: inactive

molecule: C=C1C(=O)OC2CC3(C)C(CC12)C(C)=CC(O)C3OC(C)=O (stereo not given)
experimental.system: OV90
reported.endpoint: activity change, negative = cytotoxicity
endpoint.result: inactive

molecule: C=C(C(=O)O)C1CCC2(C)CCC(O)C(=C)C2C1 (stereo not given)
experimental.system: OV90
reported.endpoint: activity change, negative = cytotoxicity
endpoint.result: inactive

molecule: O=C(OC[C@H]1O[C@H](O[C@]2(CO)O[C@H](CO)[C@@H](O)[C@@H]2O)[C@H](O)[C@@H](O)[C@@H]1O)c1ccccc1
experimental.system: OV90
reported.endpoint: activity change, negative = cytotoxicity
endpoint.result: inactive

====

Catalogue of compounds with associated max response
# Tested on: NIH3T3
# assay.summary: Cytotoxic Profiling of Annotated Libraries Using Quantitative High-Throughput Screening (AID 1296008); note: % is set by controls: 0 for no effect and ±100 for the full control effect; nearly all actives have a fitted effect of over 60% in size
# cond: Five cell lines viability, CellTiter-Glo ATP luminescence, 48-72 h; active compounds read low
Records with an inconclusive call do not appear.

compound: O=C(O)CC(=O)OC[C@H]1O[C@@H](Oc2ccc3c(c2)OC[C@H]2c4cc5c(cc4O[C@@H]32)OCO5)[C@H](O)[C@@H](O)[C@@H]1O
max response (%): -8.59

compound: Cc1cc(Nc2nc(NC(C)c3ncc(F)cn3)ncc2Cl)n[nH]1 (stereo not drawn)
max response (%): -5.45

compound: CC1(C)CCCC2(C)C1CC(=O)C13CC(CCC12)C(O)(CO)C3 (stereo not drawn)
max response (%): 2.51

compound: C=C(C(=O)O)[C@H]1C[C@]2(C)[C@@H](O)CC[C@]23O[C@H]1C[C@@H]3C
max response (%): -13.7

compound: CC(C)(O[C@@H]1O[C@H](CO)[C@@H](O)[C@H](O)[C@H]1O)C(OC(=O)/C=C\c1ccc(O)cc1)C(=O)OCc1ccc(O[C@@H]2O[C@H](CO)[C@@H](O)[C@H](O)[C@H]2O)cc1 (stereo partly drawn)
max response (%): -27.1

compound: COc1ccc(Cl)c(Nc2nc3ccccc3nc2NS(=O)(=O)c2cccc(NC(=O)C(C)(C)N)c2)c1
max response (%): -15.2

compound: Cn1c2ccc(F)cc2c2c(C(=O)N3CCCC3)cn(-c3ccccc3)c(=O)c21
max response (%): -3.48

compound: CC1=C(/C=C/C(C)=C\C=C\C(C)=C/C(=O)O)C(C)(C)CCC1
max response (%): 0.69

compound: C[C@@H]1O[C@@H](OC[C@H]2O[C@@H](Oc3cc(O)cc4c3C(=O)C(O)(Cc3ccc(O)cc3)O4)[C@H](O)[C@@H](O)[C@@H]2O)[C@H](O)[C@H](O)[C@H]1O (stereo partly drawn)
max response (%): 2.04

compound: CC12CCC(=O)C=C1C(O)CC1C2C(O)CC2(C)C1CC[C@]2(O)C(=O)CO (stereo partly drawn)
max response (%): 0.282

compound: C=C(C(=O)OC)C1C(O)CC2(C)C(O)CCC(=O)C2C1O (stereo not drawn)
max response (%): 3.84

compound: C/C(=C\CC[C@@H](C)[C@H]1CC(O)[C@@]2(C)C3CC[C@H]4C(C)(C)[C@@H](OC5OCC(O)C(O)C5OC5OC(CO)C(O)C(O)C5O)CC[C@@]45C[C@@]35CC(O)[C@]12C)C(=O)O (stereo partly drawn)
max response (%): -27.1

compound: C[C@@H]1O[C@@H](O[C@H]2[C@H](O)[C@@H](O[C@@H]3O[C@H](CO)[C@@H](O)[C@H](O[C@@H]4O[C@H](CO)[C@@H](O)[C@H](O)[C@H]4O)[C@H]3O)[C@H](O[C@H]3CC[C@@]4(C)C(=CC[C@@H]5C4CC[C@@]4(C)C5C[C@@H]5OC6(CC[C@@](C)(CO[C@@H]7O[C@H](CO)[C@@H](O)[C@H](O)[C@H]7O)O6)[C@@H](C)[C@@H]54)C3)O[C@@H]2CO)[C@H](O)[C@H](O)[C@H]1O (stereo partly drawn)
max response (%): 3.35

====

# Tested on: NIH3T3
# assay.summary: Cytotoxic Profiling of Annotated Libraries Using Quantitative High-Throughput Screening (AID 1296008); note: % is set by controls: 0 for no effect and ±100 for the full control effect; nearly all actives have a fitted effect of over 60% in size
# cond: Five cell lines viability, CellTiter-Glo ATP luminescence, 48-72 h; active compounds read low
Records with an inconclusive call do not appear.
Below, each of the compounds is paired with its reported max response value.

compound: CCCn1c(=O)c2[nH]c(-c3ccc(OCC(=O)O)cc3)nc2n(CCC)c1=O
max response [%]: -3.27
--
compound: CCC1C(=O)OC23C=C[C@@H]4C(C(=O)O)=CO[C@H](O[C@@H]12)[C@@H]43 (stereo partly specified)
max response [%]: 0.895
--
compound: C=CC(C)(O)CC/C=C(\C)C(=O)OC1C(O)C(CO)OC(OC(=O)C23CCC(C)(C)CC2C2=CCC4C5(C)CCC(OC6OC(COC7OCC(OC(C)=O)C(O)C7OC7OC(COC(C)=O)C(O)C(O)C7O)C(O)C(O)C6O)C(C)(C)C5CCC4(C)C2(C)C(O)C3O)C1OC1OCC(OC2OCC(O)C(OC3OCC(O)C(O)C3O)C2O)C(O)C1O (stereo unspecified)
max response [%]: -2.07
--
compound: CC1CCC2C(C(=O)O)=COC(O[C@@H]3O[C@H](CO)[C@@H](O)[C@H](O)[C@H]3O)C12 (stereo partly specified)
max response [%]: -1.59
--
compound: CC1OC(OC2C(C)OC(OC3C(OC(=O)C45CCC(C)(C)CC4C4=CCC6C7(C)CCC(OC8OC(C(=O)O)C(O)C(O)C8OC8OC(CO)C(O)C(OC9OC(C)C(O)C(O)C9O)C8O)C(C)(CO)C7CCC6(C)C4(C)CC5)OC(CO)C(O)C3O)C(O)C2O)C(O)C(O)C1O (stereo unspecified)
max response [%]: -18.1
--
compound: OCC1OC(Oc2cc(O)cc(/C=C/c3ccc(O)cc3)c2)C(O)C(O)C1O (stereo unspecified)
max response [%]: -0.337
